The measured values listed here are drawn from ChEMBL document CHEMBL1147657.

target: Carbonic anhydrase 9 (Homo sapiens, UniProt Q16790)
Provide the reported Ki of each item.
Express the reported value numerically, then name its unit.

{"columns": ["Compound", "System Under Test", "Assay Result"],
 "data": [
  ["NS(=O)(=O)c1ccc2c(c1)CC(NC(=O)c1c(F)c(F)c(F)c(F)c1F)C2 (configuration not stated)", "Carbonic anhydrase 9 (Homo sapiens, UniProt Q16790)", "33 nM"]
]}

Req: I would be grateful if you could share the reported Ki for CCCCCCCCCC(=O)NC1Cc2ccc(S(N)(=O)=O)cc2C1 (configuration not stated) .
Resp: 3.7 nM
